# Lookup of reported Cells PE-A Mean keyed by entry
- TESTED_SYSTEM: T1, human PD-L1 (hPD-L1) expressed on transfected 300.19 cells (human, UniProt Q9NZQ7 19-290)
- T1 construct: whole, on cells; also called B7H1
- T1 sequence (Q9NZQ7 19-290): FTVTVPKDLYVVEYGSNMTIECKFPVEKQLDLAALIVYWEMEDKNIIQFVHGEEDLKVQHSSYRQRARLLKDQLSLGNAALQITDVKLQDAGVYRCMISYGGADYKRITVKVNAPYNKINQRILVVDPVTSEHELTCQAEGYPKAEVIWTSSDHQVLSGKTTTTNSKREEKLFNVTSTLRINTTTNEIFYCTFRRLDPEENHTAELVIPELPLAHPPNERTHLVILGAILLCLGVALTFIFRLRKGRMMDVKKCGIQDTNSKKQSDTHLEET
- ASSAY_EXPLANATION: FACS, hPD-L1 300.19 cells, assay 2, Ab 0.1 ug/ml
MEASURED_PROPERTY: Cells PE-A Mean (MFI)

>>> reported_measurement("Ab-14 (antibody, V domains shown, also called huPD-L1 Ab # 14) VH: QVQLVQSGAEVKKPGASVKVSCKASGYTFTSYGISWVRQAPGQGLEWMGWISAYNGNTNYAQKLQGRVTMTTDTSTSTAYMELRSLRSDDTAVYYCARALPSGTILVGGWFDPWGQGTLVTVSS VL: NFMLTQPHSVSESPGKTVTISCTRSSGNIASNYVQWYQQRPGSAPTTVIYEDNQRPSGVPDRFSGSIDSSSNSASLTISGLKTEDEADYYCQSYDSSNLWVFGGGTKLTVL")
17700
>>> reported_measurement("Ab-55 (antibody, V domains shown, also called huPD-L1 Ab # 55) VH: QVQLVQSGAEVKKPGASVKVSCKASGYTFTSYGISWVRQAPGQGLEWMGWTSPHNGLTAFAQILEGRVTMTTDTSTNTAYMELRNLTFDDTAVYFCAKVHPVFSYALDVWGQGTLVTVSS VL: NFMLTQPHSVSESPGKTVTISCTRSSGSIASNYVQWYQQRPGSSPTTVIYEDNQRPSGVPDRFSGSIDTSSNSASLTISGLKTKDEADYYCQSYDGITVIFGGGTKLTVL")
8910
>>> reported_measurement("Ab-30 (antibody, V domains shown, also called huPD-L1 Ab # 30) VH: QVQLVQSGGSVVRPGESLRLSCVASGFIFDNYDMSWVRQVPGKGLEWVSRVNWNGGSTTYADAVKGRFTISRDNTKNSLYLQMNNLRAEDTAVYYCVREFVGAYDLWGQGTTVTVSS VL: QSALTQPASVSGSPGQSITISCTGTSSDVGGYNYVSWYQQHPGKAPKLMIYDVSNRPSGVSNRFSGSKSGNTASLTISGLQAEDEADYYCSSYTSSTLPFGGGTKLTVL")
39100
>>> reported_measurement("Ab-42 (antibody, V domains shown, also called huPD-L1 Ab # 42; mAb42) VH: QVQLVQSGAEVKKPGSSVKVSCKASGGTFSSYAISWVRQAPGQGLEWMGGIIPIFGTANYAQKFQGRVTITADKSTSTAYMELSSLRSEDTAVYYCARGRQMFGAGIDFWGPGTLVTVSS VL: NFMLTQPHSVSESPGKTVTISCTRSSGSIDSNYVQWYQQRPGSAPTTVIYEDNQRPSGVPDRFSGSIDSSSNSASLTISGLKTEDEADYYCQSYDSNNRHVIFGGGTKLTVL")
49400
>>> reported_measurement("Ab-50 (antibody, V domains shown, also called huPD-L1 Ab # 50) VH: QVQLVQSGGEVKKPGASVKVSCKASGYTLSSHGITWVRQAPGQGLEWMGWISAHNGHASNAQKVEDRVTMTTDTSTNTAYMELRSLTADDTAVYYCARVHAALYYGMDVWGQGTLVTVSS VL: QSVLTQPPSVSVAPGQTARITCGGNNIGSKGVHWYQQKPGQAPVLVVYDDSDRPSGIPERFSGSNSGNTATLTISRVEAGDEADYYCQVWDSSSDHWVFGGGTKLTVL")
28700
>>> reported_measurement("Ab-31 (antibody, V domains shown, also called huPD-L1 Ab # 31) VH: QVQLVQSGAEVKKPGATVKVSCKVFGDTFRGLYIHWVRQAPGQGLEWMGGIIPIFGTANYAQKFQGRVTITTDESTSTAYMELSSLRSEDTAVYYCASGLRWGIWGWFDPWGQGTLVTVSS VL: EIVLTQSPATLSLSPGERATLSCRASQSIGNSLAWYQQKPGQAPRLLMYGASSRATGIPDRFSGSGAGTDFTLTISSLEPEDFATYYCQQHTIPTFSFGPGTKVEVK")
37700
>>> reported_measurement("Ab-52 (antibody, V domains shown, also called huPD-L1 Ab # 52) VH: QVQLQESGGGVVQPGRSLRLSCSASGFTFSRHGMHWVRQAPGKGLEWVAVISHDGSVKYYADSMKGRFSISRDNSNNTLYLQMDSLRADDTAVYYCARGLSYQVSGWFDPWGQGTLVTVSS VL: NFMLTQPHSVSESPGKTVTISCTRSSGSIASNYVQWYQQRPGSAPTTVIYEDNQRPSGVPDRFSGSIDSSSNSASLTISGLKTEDEADYYCQSYDSTTPSVFGGGTKLTVL")
14700
